TGT: T1, human IL6 protein, His and GST tags (active) (GTX00094-pro: GeneTex, Inc.) (human, UniProt P05231 30-212, limits assumed)
T1 construct: Bought reagent; not shown: His and GST tags
ASSAY_EXPLANATION: SPR (Biacore 8K), antigen immobilized on CM4 chip, antibody as analyte
QUANTITY: Kd (nM)
Answer in nM, number only, no unit symbol.

input: Given the binder mouse anti-human IL-6 antibody (clone 44-15), original (unmodified) (Fab, V domains shown, not shown: a dimerising Fc or GST, Fab; the light entry holds only the variable domain; a His tag is implied by Ni-NTA purification but not described; also called Anti-IL-6 antibody (clone 44-15)) VH: DVQLQESGPGLVKPSQTVSLTCTVTGISITTGNYRWSWIRQFPGNKLEWIGYIYYSGAITYNPSLTSRTTITRDTSMNQFFLEMISLTAEDTATYYCARDRYDYAVDFWGQGTSVTVSS VL: DIQMTQSPASLSASVGETVTITCRSSENIYSFLTWFQQRQGKSPHLLVYYANTLAEGVPSRFSGSGSGTQFSLQINSLQPEDFGTYYCQHHYGTPWTFGGGTRLEIKR , what is its reported Kd?
output: 20.4

Values from patent US20230091175A1
